measuredTarget: WDR5 (Homo sapiens (Human), UniProt P61964)
experimentDescription: TR-FRET binding assay (displacement of 10mer-Thr-FAM probe from WDR5)
experimentalContext: read-out: Ki for Inhibition of WDR5 by TR-FRET assay; TR-FRET, 10mer-Thr-FAM probe, WDR5-His tag 2 nM, pH 7.0
observationType: Ki (nM)
Quick reminder: number only, in nM, skip the unit.

Some molecules with known Ki results, for comparison:
>>> val("Cc1cc(CNC(=O)c2cc(Cn3ccn(C)c3=N)cc(-c3ccc(=O)[nH]c3C)c2)ccc1Cl")
20
>>> val("Cc1cc([C@@H](NC(=O)c2cc(CN3CCCOC3=N)cc(-c3cccnc3C(F)(F)F)c2)C2CC2)ccc1F [Example 266]")
16
>>> val("Cc1cc([C@@H](NC(=O)c2cc(Cn3ccn(C)c3=N)cc(-c3cccnc3OC(F)F)c2)C2CC2)ccc1F")
0.21

Could you now consider this next molecule?
Query block: Please look up its Ki: N=C1SCCN1Cc1cc(C(=O)N[C@H](c2ccc(Cl)c(Cl)c2)C2CC2)cc(-c2cccnc2C(F)(F)F)c1
Result block: 1.49

---

Tested on: MV4:11 human cancer cell lines
experimentDescription: Anti-proliferative activity, CellTiter-Glo viability assay, 7 day protocol
Format: cell-based
experimentalContext: Homo sapiens, MV4-11, 168 h, MV4:11 cells, 7 day incubation, read-out: GI50 on cellular proliferation of MV4:11 human cancer cell lines
Doc: threshold 300 nM (exclusive). Items with GI50 beneath it return yes; others return no.

Query block: Please let me know if CCn1cc(-c2cc(CN3CCOC3=N)cc(C(=O)N[C@H](c3ccc(F)c(C)c3)C3CC3)c2)c(C(F)(F)F)n1 shows GI50 below 300 nM.
Result block: yes

Query block: Please let me know if Cc1cc([C@@H](NC(=O)c2cc(Cn3ccn(C)c3=N)cc(C3CC3)c2)C2CC2)ccc1F shows GI50 below 300 nM.
Result block: no

Query block: Please let me know if COc1cc([C@@H](NC(=O)c2cc(Cn3ccoc3=N)cc(-c3cn(C)nc3C(F)(F)F)c2)C2CC2)ncc1F shows GI50 below 300 nM.
Result block: no

Query block: Please let me know if Cc1cc(C)nc(CNC(=O)c2cc(Cn3ccn(C)c3=N)cc(-c3cccnc3C)c2)n1 shows GI50 below 300 nM.
Result block: no

Query block: Please let me know if Cc1cc(F)ccc1-c1cc(Cn2ccn(C)c2=N)cc(C(=O)N[C@H](C)c2ccc(F)c(C(F)(F)F)c2)c1 shows GI50 below 300 nM.
Result block: no

Query block: Please let me know if COc1cc([C@@H](NC(=O)c2cc(Cn3ccsc3=N)cc(-c3cn(C)nc3C(F)(F)F)c2)C2CC2)ccc1F shows GI50 below 300 nM.
Result block: yes

Query block: Please let me know if Cc1cc([C@@H](NC(=O)c2cc(Cn3ccn(C4CC4)c3=N)cc(-c3cn(C)nc3C(F)(F)F)c2)C2CC2)ncc1F shows GI50 below 300 nM.
Result block: yes

Query block: Please let me know if Cc1cc([C@@H](NC(=O)c2cc(Cn3ccn(C)c3=N)cc(OC(F)(F)F)c2)C2CC2)ccc1F shows GI50 below 300 nM.
Result block: yes

Query block: Please let me know if Cc1ccnc([C@@H](NC(=O)c2cc(Cn3ccoc3=N)cc(-c3ccc(F)cc3C)c2)C2CC2)c1 shows GI50 below 300 nM.
Result block: yes

Query block: Please let me know if Cc1cc([C@@H](NC(=O)c2cc(Cn3ccn(C)c3=N)cc(-c3ncccc3C(F)(F)F)c2)C2CC2)ccc1F shows GI50 below 300 nM.
Result block: no

Query block: Please let me know if CCn1cc(-c2cc(Cn3ccn(C)c3=N)cc(C(=O)NCc3ccc(F)c(C)c3)c2)c(C(F)(F)F)n1 shows GI50 below 300 nM.
Result block: yes

Query block: Please let me know if Cc1ccnc(C(NC(=O)c2cc(Cn3ccn(C)c3=N)cc(-c3ccc(F)cc3C)c2)C2CC2)c1 (stereo not drawn) shows GI50 below 300 nM.
Result block: yes

Query block: Please let me know if CCn1ccn(Cc2cc(C(=O)NCc3cc(OC)cc(OC)c3)cc(-c3ccc(F)cc3C)c2)c1=N shows GI50 below 300 nM.
Result block: no

Query block: Please let me know if Cc1cc([C@@H](NC(=O)c2cc(CN3CCCC3=N)cc(-c3cccnc3C(F)(F)F)c2)C2CC2)ccc1F shows GI50 below 300 nM.
Result block: yes

---

measuredTarget: WDR5 (Homo sapiens (Human))
experimentDescription: TR-FRET binding assay (displacement of 10mer-Thr-FAM probe from WDR5)
experimentalContext: read-out: Ki for Inhibition of WDR5 by TR-FRET assay; TR-FRET, 10mer-Thr-FAM probe, WDR5-His tag 2 nM, pH 7.0
observationType: pKi
Remember, pKi is on a log scale: it is -log10 of the molar concentration.

Query block: Please look up its pKi: N=C1OCCN1Cc1cc(C(=O)N[C@H](c2ccc(Cl)c(Cl)c2)C2CC2)cc(-c2ncc(F)cc2C(F)(F)F)c1
Result block: 9.96

Query block: Please look up its pKi: N=c1n(Cc2cc(C(=O)N[C@H](c3ccc(Cl)c(Cl)c3)C3CC3)cc(-c3cccnc3C(F)(F)F)c2)ccn1C1CC1
Result block: 8.85

Query block: Please look up its pKi: N=c1occn1Cc1cc(C(=O)N[C@H](c2ccc(Cl)c(Cl)c2)C2CC2)cc(-c2cccnc2C(F)(F)F)c1
Result block: 9.14

Query block: Please look up its pKi: Cc1ccnc([C@@H](NC(=O)c2cc(Cn3ccn(C)c3=N)cc(OC(F)(F)F)c2)C2CC2)c1
Result block: 9.25

---

measuredTarget: UniProt P61964
experimentDescription: TR-FRET binding assay (displacement of 10mer-Thr-FAM probe from WDR5)
experimentalContext: read-out: Ki for Inhibition of WDR5 by TR-FRET assay; TR-FRET, 10mer-Thr-FAM probe, WDR5-His tag 2 nM, pH 7.0
pKi: −log10 of the molar value.
observationType: pKi

>>> val("C[C@H](NC(=O)c1cc(Cn2ccn(C)c2=N)cc(-c2cccnc2C(F)(F)F)c1)c1ncc(F)cn1")
"< 7.48"

Query block: Please look up its pKi: Cc1cc([C@@H](NC(=O)c2cc(Cn3ccsc3=N)cc(-c3cn(C)nc3C(F)(F)F)c2)C2CC2)ncc1F
Result block: > 10.00

Query block: Please look up its pKi: Cc1cc([C@@H](NC(=O)c2cc(Cn3ccn(C)c3=N)cc(-c3ccc(F)cc3C#N)c2)C2CC2)ccc1F
Result block: > 10.00

---

Tested on: MV4:11 human cancer cell lines
experimentDescription: Anti-proliferative activity, CellTiter-Glo viability assay, 7 day protocol
Assay type: cell-based
experimentalContext: Homo sapiens, MV4-11, 168 h, MV4:11 cells, 7 day incubation, read-out: GI50 on cellular proliferation of MV4:11 human cancer cell lines
Items are presented alongside their recorded GI50.

>>> val("CCn1cc(-c2cc(Cn3ccoc3=N)cc(C(=O)NCc3ccc(F)c(C)c3)c2)c(C(F)(F)F)n1 [Example 294]")
"< 100 nM"

Query block: Please look up its GI50: Cc1cc([C@@H](NC(=O)c2cc(Cn3ccoc3=N)cc(-c3cn(C(C)C)nc3C(F)(F)F)c2)C2CC2)ccc1F [Example 291]
Result block: < 100 nM

Query block: Please look up its GI50: N=C1CCCN1Cc1cc(C(=O)N[C@H](c2ccc(F)c(Cl)c2)C2CC2)cc(-c2cccnc2C(F)(F)F)c1 [Example 340]
Result block: < 100 nM

---

Tested on: MV4:11 human cancer cell lines
experimentDescription: Anti-proliferative activity, CellTiter-Glo viability assay, 7 day protocol
Format: cell-based
experimentalContext: Homo sapiens, MV4-11, 168 h, MV4:11 cells, 7 day incubation, read-out: GI50 on cellular proliferation of MV4:11 human cancer cell lines
observationType: GI50 (nM)
Quick reminder: number only, in nM, skip the unit.

Some molecules with known GI50 results, for comparison:
>>> val("Cc1cc(CNC(=O)c2cc(Cn3ccn(C)c3=N)cc(-c3c(C)cc(F)cc3F)c2)ccc1Cl")
580
>>> val("Cc1ccnc(C(NC(=O)c2cc(Cn3ccn(C)c3=N)cc(-c3c(C)ccc4[nH]ncc34)c2)C2CC2)c1 (centres unmarked)")
6700
>>> val("Cc1cc([C@@H](NC(=O)c2cc(CN3CCOC3=N)cc(-c3ccc(F)cc3C#N)c2)C2CC2)ccc1F")
200

Query block: GET /values?readout=GI50&system=MV4:11 human cancer cell lines&item= Cc1ccnc(C(NC(=O)c2cc(Cn3ccn(C)c3=N)cc(-c3cccnc3C(F)(F)F)c2)C2CC2)c1 (centres unmarked)
Result block: 1200

Query block: GET /values?readout=GI50&system=MV4:11 human cancer cell lines&item= Cn1ccn(Cc2cc(C(=O)N[C@H](c3ccc(F)c(F)c3)C3CC3)cc(-c3cccnc3C(F)(F)F)c2)c1=N
Result block: 120
